System: Para-influenza-3 virus
assay: organism not typed
Format: cell-based
applied.conditions: Vero, read-out: EC50 Para-influenza-3 virus
Measured EC50, listed per entry for reference.

These solved cases illustrate the format of a correct answer.
compound	EC50
O=C1O/C(=C\Cn2cnc3c(F)nc(F)c(Cl)c32)C(OCc2ccccc2)=C1OCc1ccccc1 [Compound 2]	> 20 µM
Nc1ncnc2c1ncn2C[C@H](O)CO [(S)-DHPA, (S)-9-(2,3-dihydroxypropyl)adenine, reference compound]	> 250 µM

Consider the additional compound presented here.
IN: Which EC50 is listed for O=C1O/C(=C\Cn2cnc3c(Cl)c(F)nc(F)c32)C(OCc2ccccc2)=C1OCc1ccccc1 [Compound 3] ?
OUT: > 20 µM
